system: 521955-158-R2-J5-PDC complex spheroid growth, % test/control; experiment: Anticancer human tumor 521955-158-R2-J5-PDC patient-derived pancreatic carcinoma cell line growth inhibition [Asc]; conditions: second compound 1 µM; first compound 0.316 µM; hits give low values
result_type: viability, T/C (%)

molecule	result_type	recorded_value
CCN1CCN(Cc2ccc(Nc3ncc(F)c(-c4cc(F)c5nc(C)n(C(C)C)c5c4)n3)nc2)CC1 + CNC(C)C(=O)NC1CN(S(=O)(=O)c2cccc(S(=O)(=O)N3CCC4CCC(C(=O)NC(c5ccccc5)c5ccccc5)N4C(=O)C(NC(=O)C(C)NC)C3)c2)CCC2CCC(C(=O)NC(c3ccccc3)c3ccccc3)N2C1=O	viability, T/C	69.9

----------
system: 521955-158-R2-J5-PDC complex spheroid growth, % test/control; test: Anticancer human tumor 521955-158-R2-J5-PDC cell line growth inhibition [Asc]; conditions: second compound 3.16 µM; first compound 0.00316 µM; hits give low values;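 note: spheroids exposed to agents for 7 days before readout; 100% = DMSO vehicle control viability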
Known viability, T/C of a selection of compounds

compound	viability, T/C / %
NC1CCC(NC2CC2c2ccccc2)CC1 (centres undefined) + Cc1c(S(C)(=O)=O)c(-c2cc(F)cc(N3CCN(c4ccc(NS(=O)(=O)c5ccc(NC(CCN6CCC(C(=O)OCCCP(=O)(O)O)CC6)CSc6ccccc6)c(S(=O)(=O)C(F)(F)F)c5)cc4)CC3)c2)c(-c2ccc(Cl)cc2)n1C(C)C	25.4
CCN1CCN(Cc2ccc(Nc3ncc(F)c(-c4cc(F)c5nc(C)n(C(C)C)c5c4)n3)nc2)CC1 + Cc1c(S(C)(=O)=O)c(-c2cc(F)cc(N3CCN(c4ccc(NS(=O)(=O)c5ccc(NC(CCN6CCC(C(=O)OCCCP(=O)(O)O)CC6)CSc6ccccc6)c(S(=O)(=O)C(F)(F)F)c5)cc4)CC3)c2)c(-c2ccc(Cl)cc2)n1C(C)C	58
Cn1ncnc1[C@H]1c2n[nH]c(=O)c3cc(F)cc(c23)N[C@@H]1c1ccc(F)cc1 + Cc1c(S(C)(=O)=O)c(-c2cc(F)cc(N3CCN(c4ccc(NS(=O)(=O)c5ccc(NC(CCN6CCC(C(=O)OCCCP(=O)(O)O)CC6)CSc6ccccc6)c(S(=O)(=O)C(F)(F)F)c5)cc4)CC3)c2)c(-c2ccc(Cl)cc2)n1C(C)C	82.3
O=C(c1ccc(F)c(F)c1Nc1ccc(I)cc1F)N1CC(O)([C@@H]2CCCCN2)C1 + Cc1c(S(C)(=O)=O)c(-c2cc(F)cc(N3CCN(c4ccc(NS(=O)(=O)c5ccc(NC(CCN6CCC(C(=O)OCCCP(=O)(O)O)CC6)CSc6ccccc6)c(S(=O)(=O)C(F)(F)F)c5)cc4)CC3)c2)c(-c2ccc(Cl)cc2)n1C(C)C	61.2

----------
tested on: 521955-158-R2-J5-PDC complex spheroid growth, % test/control; test: Anticancer human tumor 521955-158-R2-J5-PDC cell line growth inhibition [Asc]; conditions: second compound 3 µM; first compound 0.0316 µM; hits give low values;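 note: spheroids exposed to agents for 7 days before readout; 100% = DMSO vehicle control viability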
Measured viability, T/C by item

compound	viability, T/C / %
CCN1CCN(Cc2ccc(Nc3ncc(F)c(-c4cc(F)c5nc(C)n(C(C)C)c5c4)n3)nc2)CC1 + CCN1C(C(=O)NC23CCC(C(=O)O)(CC2)CC3)C(c2cccc(Cl)c2F)C2(C(=O)Nc3cc(Cl)ccc32)C12CCCCC2	126
O=C(c1ccc(F)c(F)c1Nc1ccc(I)cc1F)N1CC(O)([C@@H]2CCCCN2)C1 + CCN1C(C(=O)NC23CCC(C(=O)O)(CC2)CC3)C(c2cccc(Cl)c2F)C2(C(=O)Nc3cc(Cl)ccc32)C12CCCCC2	80
CNC(C)C(=O)NC1CN(S(=O)(=O)c2cccc(S(=O)(=O)N3CCC4CCC(C(=O)NC(c5ccccc5)c5ccccc5)N4C(=O)C(NC(=O)C(C)NC)C3)c2)CCC2CCC(C(=O)NC(c3ccccc3)c3ccccc3)N2C1=O (stereo not given) + CCN1C(C(=O)NC23CCC(C(=O)O)(CC2)CC3)C(c2cccc(Cl)c2F)C2(C(=O)Nc3cc(Cl)ccc32)C12CCCCC2	141
C=CC(=O)N1CCN(c2nc(=O)n(-c3c(C)ccnc3C(C)C)c3nc(-c4c(O)cccc4F)c(F)cc23)C(C)C1 (stereo not given) + CCN1C(C(=O)NC23CCC(C(=O)O)(CC2)CC3)C(c2cccc(Cl)c2F)C2(C(=O)Nc3cc(Cl)ccc32)C12CCCCC2	128
C#Cc1c(F)ccc2cc(O)cc(-c3ncc4c(N5CC6CCC(C5)N6)nc(OCC56CCCN5CC(F)C6)nc4c3F)c12 (stereo not given) + CCN1C(C(=O)NC23CCC(C(=O)O)(CC2)CC3)C(c2cccc(Cl)c2F)C2(C(=O)Nc3cc(Cl)ccc32)C12CCCCC2	70.1
Cn1ncnc1[C@H]1c2n[nH]c(=O)c3cc(F)cc(c23)N[C@@H]1c1ccc(F)cc1 + CCN1C(C(=O)NC23CCC(C(=O)O)(CC2)CC3)C(c2cccc(Cl)c2F)C2(C(=O)Nc3cc(Cl)ccc32)C12CCCCC2	122
NC1CCC(NC2CC2c2ccccc2)CC1 (stereo not given) + CCN1C(C(=O)NC23CCC(C(=O)O)(CC2)CC3)C(c2cccc(Cl)c2F)C2(C(=O)Nc3cc(Cl)ccc32)C12CCCCC2	92.8
C=C(F)C(=O)N1CCN(c2nc(OCC3CCCN3C)nc3c2CCN(c2cccc4cccc(Cl)c24)C3)CC1CC#N (stereo not given) + CCN1C(C(=O)NC23CCC(C(=O)O)(CC2)CC3)C(c2cccc(Cl)c2F)C2(C(=O)Nc3cc(Cl)ccc32)C12CCCCC2	120
COc1c(OCCCN2CCOCC2)ccc2c3n(c(=NC(=O)c4cnc(N)nc4)nc12)CCN3 + CCN1C(C(=O)NC23CCC(C(=O)O)(CC2)CC3)C(c2cccc(Cl)c2F)C2(C(=O)Nc3cc(Cl)ccc32)C12CCCCC2	43.5
O=C(c1cc(Cc2n[nH]c(=O)c3ccccc23)ccc1F)N1CCN(C(=O)C2CC2)CC1 + CCN1C(C(=O)NC23CCC(C(=O)O)(CC2)CC3)C(c2cccc(Cl)c2F)C2(C(=O)Nc3cc(Cl)ccc32)C12CCCCC2	109
